Cited source for all entries: paper PMC9298201

# Lookup of reported Ki keyed by entry
- target or test system: UniProt:P00918

{"chemical structure": "CC(C)[C@H](NC(=O)c1cccs1)C(=O)NCc1ccc(S(N)(=O)=O)cc1", "Ki": "0.0184 µM"}
{"chemical structure": "NS(=O)(=O)c1ccc(CNC(=O)CNC(=O)c2cccs2)cc1", "Ki": "0.0873 µM"}
{"chemical structure": "NS(=O)(=O)c1ccc(CNC(=O)CNC(=O)c2ccco2)cc1", "Ki": "0.316 µM"}
{"chemical structure": "C[C@H](NC(=O)c1cccs1)C(=O)NCc1ccc(S(N)(=O)=O)cc1", "Ki": "0.0711 µM"}
{"chemical structure": "NS(=O)(=O)c1ccc(NC(=O)CNC(=O)c2ccccc2Cl)cc1", "Ki": "0.0296 µM"}

* * *

- target or test system: hCA I (Homo sapiens, UniProt P00915)
- Sequence (P00915 whole entry): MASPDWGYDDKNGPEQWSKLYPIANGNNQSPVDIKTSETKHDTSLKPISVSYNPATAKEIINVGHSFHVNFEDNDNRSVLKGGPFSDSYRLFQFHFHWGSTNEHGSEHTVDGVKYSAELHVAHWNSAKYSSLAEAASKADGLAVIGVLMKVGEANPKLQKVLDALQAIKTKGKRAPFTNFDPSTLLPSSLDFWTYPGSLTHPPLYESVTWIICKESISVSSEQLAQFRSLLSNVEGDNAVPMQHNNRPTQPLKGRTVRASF
Criterion: Ki strictly under 600 nM. Met: True. Not met: False.

{"chemical structure": "NS(=O)(=O)c1ccc(NC(=O)CNC(=O)c2ccccc2)cc1", "group label": "True"}
{"chemical structure": "CC(C)[C@H](NC(=O)c1ccccc1)C(=O)NCc1ccc(S(N)(=O)=O)cc1", "group label": "True"}
{"chemical structure": "NS(=O)(=O)c1ccc(NC(=O)CNC(=O)c2ccccc2Cl)cc1", "group label": "True"}
{"chemical structure": "NS(=O)(=O)c1ccc(NC(=O)CNC(=O)c2cccs2)cc1", "group label": "True"}
{"chemical structure": "NS(=O)(=O)c1ccc(NC(=O)CNC(=O)c2cccc(Cl)c2)cc1", "group label": "True"}
{"chemical structure": "NS(=O)(=O)c1ccc(NC(=O)CNC(=O)c2ccc(Cl)cc2)cc1", "group label": "True"}
{"chemical structure": "C[C@H](NC(=O)c1ccco1)C(=O)NCc1ccc(S(N)(=O)=O)cc1", "group label": "False"}
{"chemical structure": "CC(C)[C@H](NC(=O)c1ccccc1)C(=O)Nc1ccc(S(N)(=O)=O)cc1", "group label": "True"}
{"chemical structure": "C[C@H](NC(=O)c1cccs1)C(=O)NCc1ccc(S(N)(=O)=O)cc1", "group label": "False"}
{"chemical structure": "C[C@H](NC(=O)c1ccccc1)C(=O)Nc1ccc(S(N)(=O)=O)cc1", "group label": "True"}
{"chemical structure": "C[C@H](N)C(=O)Nc1ccc(S(N)(=O)=O)cc1", "group label": "False"}

* * *

- target or test system: VchCAγ (Vibrio cholerae, UniProt Q9KVT1)
- Sequence (Q9KVT1 1-184): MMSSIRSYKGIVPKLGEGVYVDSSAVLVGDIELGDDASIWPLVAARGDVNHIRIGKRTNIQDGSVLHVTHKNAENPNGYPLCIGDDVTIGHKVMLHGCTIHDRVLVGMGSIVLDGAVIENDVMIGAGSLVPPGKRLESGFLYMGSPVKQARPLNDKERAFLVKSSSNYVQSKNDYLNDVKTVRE
- measurement protocol: stopped-flow CO2 hydrase assay, VchCAγ
- Format: biochemical
pKi: −log10 of the molar value.
The compounds listed here are annotated with their pKi.
experimental readout: pKi

{"chemical structure": "CC(C)[C@H](NC(=O)c1ccccc1)C(=O)Nc1ccc(S(N)(=O)=O)cc1", "value measured": 7.61}
{"chemical structure": "CC(C)[C@H](NC(=O)c1cccs1)C(=O)NCc1ccc(S(N)(=O)=O)cc1", "value measured": 7.07}
{"chemical structure": "CC(C)[C@H](NC(=O)c1ccccc1)C(=O)NCc1ccc(S(N)(=O)=O)cc1", "value measured": 6.48}
{"chemical structure": "NS(=O)(=O)c1ccc(NC(=O)CNC(=O)c2cccs2)cc1", "value measured": 5.22}
{"chemical structure": "NS(=O)(=O)c1ccc(NC(=O)CNC(=O)c2cccc(Cl)c2)cc1", "value measured": 6.44}
{"chemical structure": "NS(=O)(=O)c1ccc(NC(=O)CNC(=O)c2ccccc2)cc1", "value measured": 6.25}
{"chemical structure": "NS(=O)(=O)c1ccc(CNC(=O)CNC(=O)c2ccccc2)cc1", "value measured": 6.64}
{"chemical structure": "C[C@H](NC(=O)c1cccs1)C(=O)NCc1ccc(S(N)(=O)=O)cc1", "value measured": 7.03}
{"chemical structure": "NS(=O)(=O)c1ccc(NC(=O)CNC(=O)c2ccco2)cc1", "value measured": 5.11}
